tested on: Acinetobacter baumannii pittii AG225; assay: MIC by broth microdilution, Acinetobacter baumannii; format: cell-based; conditions: strain AG225 Acinetobacter baumannii pittii
Where a name gives a salt, the structure may show the parent alone.
Reported MIC by item:
Number only, in µg/mL; omit the unit.

NC[C@@H]1O[C@H](O[C@@H]2C(O)[C@H](O[C@@H]3C(O)[C@H](N)CC(N)[C@H]3O[C@H]3OC(CO)[C@@H](O)[C@H](O)C3N)O[C@@H]2CNC=O)C(N)C(O)[C@@H]1O (some centres unmarked) [Compound 137, acetate salt] ... 2
CCC[C@@H]1C(CNCCO)O[C@H](O[C@@H]2C(N)C[C@@H](N)C(O)[C@H]2O[C@@H]2O[C@H](CNCCO)[C@H](O[C@H]3OC(CN)[C@@H](O)C(O)C3N)C2O)[C@@H](N)C1O (some centres unmarked) [Compound 193] ... 32

Alright, here's another molecule for you.
Problem: Provide one value: measured MIC of CNC1C(OC2C(N)CC(N)C(O)C2OC2OC(CO)C(OC3OC(CN)C(O)C(O)C3N)C2O)OC(CN)C(O)C1O (centres unmarked) [Compound 171, 2′-N-Methyl-neomycin acetate salt]
Result: 1

* * *

test system: rabbit reticulocyte ribosomes; test: in-vitro translation assay, rabbit reticulocyte ribosomes; format: biochemical; settings: mammalian cytosolic ribosomes (rabbit)
Reported pIC50 by item:
Interpret pIC50 as the negative base-10 log of the concentration measured in mol/L.

Known results for molecules:
CC(C)(O)[C@H]1O[C@H](O[C@H]2[C@H](O[C@@H]3O[C@H](CO)[C@@H](O[C@H]4O[C@@H](CN)[C@@H](O)[C@H](O)[C@H]4N)[C@H]3O)[C@@H](O)[C@H](N)C[C@@H]2N)[C@H](N)[C@@H](O)[C@@H]1O ... 4.82
NC[C@@H]1O[C@H](O[C@H]2[C@@H](O)[C@H](O[C@@H]3[C@@H](O)[C@H](N)C[C@H](N)[C@H]3O[C@H]3O[C@H](CN)[C@@H](O)[C@H](O)[C@H]3O)O[C@@H]2CO)[C@H](N)[C@@H](O)[C@@H]1O ... 4.06
NC[C@H]1O[C@H](O[C@H]2[C@H](O[C@@H]3O[C@H](CO)[C@@H](O)[C@H]3O)[C@@H](O)[C@H](N)C[C@@H]2N)[C@H](N)[C@@H](O)[C@@H]1O [Ribostamycin, ribostamycin, reference compound] ... 3.76

Problem: Find the measured pIC50 of NCC1OC(OC2C(CO)OC(OC3C(O)C(N)CC(N)C3OC3OC(CN)C(O)C(O)C3NC=O)C2O)C(N)C(O)C1O (centres unmarked) with rabbit reticulocyte ribosomes as test system.
Result: 3.96

Problem: Find the measured pIC50 of NCC1OC(OC2C(CO)OC(OC3C(O)C(N)CC(N)C3OC3OC4C(O)CCCOC4C(O)C3N)C2O)C(N)C(O)C1O (centres unmarked) with rabbit reticulocyte ribosomes as test system.
Result: 4.37

Problem: Find the measured pIC50 of NC[C@@H]1O[C@H](O[C@H]2[C@@H](O)[C@H](O[C@@H]3[C@@H](O)[C@H](N)C[C@H](N)[C@H]3O[C@H]3O[C@H](CO)[C@@H](O)C[C@H]3N)O[C@@H]2CO)[C@H](N)[C@@H](O)[C@@H]1O [Lividomycin B, lividomycin B, reference compound] with rabbit reticulocyte ribosomes as test system.
Result: 4.60

Problem: Find the measured pIC50 of NCC1OC(OC2C(CNC(N)=O)OC(OC3C(O)C(N)CC(N)C3OC3OC(CO)C(O)C(O)C3N)C2O)C(N)C(O)C1O (centres unmarked) with rabbit reticulocyte ribosomes as test system.
Result: 4.54

Problem: Find the measured pIC50 of CC(N)C1OC(OC2C(N)CC(N)C(O)C2OC2OC(CO)C(OC3OC(CN)C(O)C(O)C3N)C2O)C(N)C(O)C1O (centres unmarked) with rabbit reticulocyte ribosomes as test system.
Result: 4.32

Problem: Find the measured pIC50 of CCCC(O)C1OC(OC2C(N)CC(N)C(O)C2OC2OC(CO)C(OC3OC(CN)C(O)C(O)C3N)C2O)C(N)C(O)C1O (centres unmarked) [DC143] with rabbit reticulocyte ribosomes as test system.
Result: 4.18

Problem: Find the measured pIC50 of `NC[C@H]1O[C@H](O[C@H]2[C@H](O[C@@H]3O[C@H](CN)[C@@H](O)[C@H]3O)[C@@H](O)[C@H](N)C[C@@H]2N)[C@H](N)[C@@H](O)[C@@H]1O` with rabbit reticulocyte ribosomes as test system.
Result: 4.30

Problem: Find the measured pIC50 of CC1CC(N)C2OC(OC3C(N)CC(N)C(O)C3OC3OC(CO)C(OC4OC(CN)C(O)C(O)C4N)C3O)C(N)C(O)C2O1 (centres unmarked) with rabbit reticulocyte ribosomes as test system.
Result: 4.89

* * *

Reported MIC by item:
test system: E coli wild type; experiment: MIC by broth microdilution, wild type E coli; format: cell-based; conditions: Escherichia coli, WT; Table 3 (Example 1); read-out: MIC WT
Number only, in mg/L; omit the unit.

NC[C@H]1O[C@H](O[C@H]2[C@H](O[C@@H]3O[C@H](CO)[C@@H](O)[C@H]3O)[C@@H](O)[C@H](N)C[C@@H]2N)[C@H](N)[C@@H](O)[C@@H]1O [Ribostamycin, ribostamycin, reference compound] ... 2
NCC1OC(OC2C(CNC=O)OC(OC3C(O)C(N)CC(N)C3OC3OC(CO)C(O)CC3N)C2O)C(N)C(O)C1O (stereo not drawn) ... 2

Alright, here's another molecule for you.
Problem: Provide one value: measured MIC of NCC1OC(OC2C(N)CC(N)C(O)C2OC2OC(CNC=O)C(O)C2O)C(N)C(O)C1O (stereo not drawn)
Result: 4

* * *

Reported log10 MIC by item:
tested on: E coli wild type; test: MIC by broth microdilution, wild type E coli; type: cell-based; settings: Escherichia coli, ATCC25922, strain AG212 E. coli (ATCC25922); read-out: MIC AG212 E. coli
Counter-ions that a name gives are not always drawn.
Values reflect log10 of reported MIC (µg/mL).

Problem: Provide one value: measured log10 MIC of NCC1O[C@H](O[C@@H]2C(O)[C@H](O[C@@H]3C(O)[C@H](N)CC(N)[C@H]3O[C@H]3OC(CO)[C@@H](CCCO)C(O)[C@@H]3N)O[C@@H]2CO)C(N)C(O)[C@@H]1O (stereo partly shown) [Compound 195]
Result: 0.90

Problem: Provide one value: measured log10 MIC of CCC[C@@H]1C(CNCCO)O[C@H](O[C@@H]2C(N)C[C@@H](N)C(O)[C@H]2O[C@@H]2O[C@H](CNCCO)[C@H](O[C@H]3OC(CN)[C@@H](O)C(O)C3N)C2O)[C@@H](N)C1O (stereo partly shown) [Compound 193]
Result: 0.60

Problem: Provide one value: measured log10 MIC of CCC[C@@H]1C(CO)O[C@H](O[C@@H]2C(N)C[C@@H](N)C(O)[C@H]2O[C@@H]2O[C@H](CO)[C@H](O[C@H]3OC(CN)[C@@H](O)C(O)C3N)C2O)[C@@H](N)C1O (stereo partly shown) [Compound 079]
Result: 0.00

Problem: Provide one value: measured log10 MIC of NC[C@@H]1O[C@H](O[C@@H]2C(O)[C@H](O[C@@H]3C(O)[C@H](N)CC(N)[C@H]3O[C@H]3OC(CO)[C@@H](O)[C@H](O)C3N)O[C@@H]2CNC=O)C(N)C(O)[C@@H]1O (stereo partly shown) [Compound 137, acetate salt]
Result: 0.30

Problem: Provide one value: measured log10 MIC of CNC1C(OC2C(N)CC(N)C(O)C2OC2OC(CO)C(OC3OC(CN)C(O)C(O)C3N)C2O)OC(CN)C(O)C1O (stereo not shown) [Compound 171, 2′-N-Methyl-neomycin acetate salt]
Result: 0.00

Problem: Provide one value: measured log10 MIC of CCO[C@@H]1C(CN)O[C@H](O[C@@H]2C(N)C[C@@H](N)C(O)[C@H]2O[C@@H]2O[C@H](CO)[C@H](OCCN)C2O)[C@@H](N)C1O (stereo partly shown) [Compound 073]
Result: 0.90

Problem: Provide one value: measured log10 MIC of NC[C@H]1O[C@H](O[C@H]2[C@H](O[C@@H]3O[C@H](CO)[C@@H](O)[C@H]3O)[C@@H](O)[C@H](N)C[C@@H]2N)[C@H](N)[C@@H](O)[C@@H]1O [Ribostamycin, ribostamycin, reference compound]
Result: 0.60

Problem: Provide one value: measured log10 MIC of NCC1OC(OC2C(CNC=O)OC(OC3C(O)C(N)CC(N)C3OC3OC(CO)C(O)CC3N)C2O)C(N)C(O)C1O (stereo not shown) [Compound 153, 3′,5″-Dideoxy-5″-formamido-paromomycin]
Result: 0.60

Problem: Provide one value: measured log10 MIC of CC(=O)NC[C@H]1O[C@@H](O[C@@H]2C(O)[C@H](N)CC(N)[C@H]2O[C@H]2OC(CO)[C@@H](O)[C@H](O)C2N)C(O)[C@H]1O[C@H]1O[C@@H](CN)[C@@H](O)C(O)C1N (stereo partly shown) [Compound 165]
Result: 1.20

Problem: Provide one value: measured log10 MIC of NCC1O[C@H](O[C@@H]2C(O)[C@H](O[C@@H]3C(O)[C@H](N)CC(N)[C@H]3O[C@H]3OC4C(O)CO[C@H]4[C@H](O)C3N)O[C@@H]2CO)C(N)[C@H](O)[C@@H]1O (stereo partly shown) [Compound 203]
Result: 1.51

Problem: Provide one value: measured log10 MIC of CCNC1C(OC2C(N)CC(N)C(O)C2OC2OC(CO)C(OC3OC(CN)C(O)C(O)C3N)C2O)OC(CO)C(O)C1O (stereo not shown) [Compound 127]
Result: 0.60

Problem: Provide one value: measured log10 MIC of NCC1O[C@H](O[C@@H]2C(O)[C@H](O[C@@H]3C(O)[C@H](N)CC(N)[C@H]3O[C@H]3OC(CO)[C@@H](CC(O)CO)C(O)[C@@H]3N)O[C@@H]2CO)C(N)C(O)[C@@H]1O (stereo partly shown) [Compound 198]
Result: 0.90
